assayMethodText: NCI Yeast Anticancer Drug Screen. Data for the mec2-1 strain (AID 157)
testSettings: S. cerevisiae mec2-1 strain, at 1.2 µM, hits give high values
Protocol: Growth inhibition of yeast strains with defined genetic alterations is measured as a screen for potential anti-cancer activity. Selected strains with alterations in DNA damage repair or cell cycle control were exposed to compounds and growth inhibition was measured relative to vehicle treated controls. The strain used in this assay is mec2-1
About 79,000 compounds went through this panel and 15% of them were active in at least one assay; those are over-represented in the sample as a whole.
valueKind: growth inhibition (%)
Report the value in % with no unit label.

{"structureSmilesString": "N#C/C(=C1C=C(Br)/C(=N\\O)C=C\\1Cl)c1cccc2ccccc12", "growth inhibition / %": 2}
{"structureSmilesString": "CCOC(=O)C1=C(C)NC(C)=C(C(=O)OCC)C1c1ccccc1Cl", "growth inhibition / %": 8}
{"structureSmilesString": "CCOC(=O)CNC(=O)c1[nH]cnc1/N=N/N(C)C", "growth inhibition / %": -8}
{"structureSmilesString": "c1ccc2c(c1)Cn1c-2nc2ccccc21", "growth inhibition / %": 9}

Can you look up the measured growth inhibition of CN(C)CCNc1cccc2sc3ccc(O)cc3c(=O)c12 for me?
4
